Kindly supply the reported shrunken log2 fold change values for the records listed here.
# Tested on: Escherichia coli TOP10
# assay_overview: shrunken log2 fold change of peptide-encoding DNA abundance (4.5 h post-induction vs induction); higher = less antimicrobial activity (less host growth inhibition)
# test_settings: time post-induction: 4.5 h; library: site-saturation at positions 5, 18, 19, 20
Give bare numbers.

>  <seq_string>
RRIRGRPPRLPRPRPRPPWIPRP

>  <observed_value>
0.256

$$$$

Please state, for each entry, its recorded shrunken log2 fold change.
1. RRIRVRPPRLPRPRPRPCWYPRP
2. RRIRWRPPRLPRPRPRPKHGPRP

A)
1: -0.544; 2: 0.186

Please state, for each entry, its recorded shrunken log2 fold change.
1. RRIRRRPPRLPRPRPRPRELPRP
2. RRIRARPPRLPRPRPRPNRCPRP

A)
0.887
0.0646

Please state, for each entry, its recorded shrunken log2 fold change.
1. RRIRVRPPRLPRPRPRPNSGPRP
2. RRIRPRPPRLPRPRPRPQHRPRP

A)
-0.496
0.162

Please state, for each entry, its recorded shrunken log2 fold change.
1. RRIRSRPPRLPRPRPRPAFKPRP
2. RRIRGRPPRLPRPRPRPQADPRP
3. RRIRYRPPRLPRPRPRPWVPPRP
4. RRIRWRPPRLPRPRPRPKMGPRP
5. RRIRHRPPRLPRPRPRPLRNPRP
6. RRIRCRPPRLPRPRPRPQSFPRP
7. RRIRCRPPRLPRPRPRPPFNPRP
8. RRIRDRPPRLPRPRPRPLCGPRP

A)
1. -0.333
2. 0.43
3. -0.0218
4. 0.0381
5. -0.0741
6. -0.253
7. -0.137
8. 0.32

Please state, for each entry, its recorded shrunken log2 fold change.
1. RRIRQRPPRLPRPRPRPWVEPRP
2. RRIRMRPPRLPRPRPRPRARPRP
3. RRIRERPPRLPRPRPRPRHNPRP
4. RRIRSRPPRLPRPRPRPWVPPRP

A)
0.0249
1.67
-0.137
0.177

Please state, for each entry, its recorded shrunken log2 fold change.
1. RRIRCRPPRLPRPRPRPRWAPRP
2. RRIRHRPPRLPRPRPRPALYPRP
3. RRIRTRPPRLPRPRPRPGWCPRP
4. RRIRKRPPRLPRPRPRPFWMPRP
5. RRIRPRPPRLPRPRPRPLSWPRP
6. RRIRNRPPRLPRPRPRPHQRPRP
7. RRIRYRPPRLPRPRPRPLHHPRP
8. RRIRNRPPRLPRPRPRPQSTPRP

A)
1: 0.453; 2: -0.033; 3: 1.42; 4: 0.0752; 5: 0.238; 6: 0.244; 7: -1.14; 8: -0.548

Please state, for each entry, its recorded shrunken log2 fold change.
1. RRIRERPPRLPRPRPRPSKQPRP
2. RRIRARPPRLPRPRPRPFCDPRP
3. RRIRTRPPRLPRPRPRPEKCPRP

A)
1. 0.0844
2. 0.0183
3. 0.0324

Please state, for each entry, its recorded shrunken log2 fold change.
1. RRIRARPPRLPRPRPRPFMMPRP
2. RRIRIRPPRLPRPRPRPGIHPRP

A)
1: -0.105; 2: -0.31

====

# Test system: Escherichia coli TOP10;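 further: peptides expressed intracellularly from a pBAD plasmid library in pooled LB shake-flask culture, induced with 0.3% L-arabinose, DNA abundance read by NGS, three biological replicates, DESeq2 with apeglm shrinkage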
# assay_overview: shrunken log2 fold change of peptide-encoding DNA abundance (4.5 h post-induction vs induction); higher = less antimicrobial activity (less host growth inhibition)
# test_settings: time post-induction: 4.5 h; library: site-saturation at positions 5, 18, 19, 20
Tick y if shrunken log2 fold change is 0.1 or greater. Tick n if shrunken log2 fold change is less than 0.1.

Record excerpt, results attached:
>  <seq_string>
RRIRYRPPRLPRPRPRPNNPPRP

>  <group>
n

$$$$
>  <seq_string>
RRIRVRPPRLPRPRPRPSGDPRP

>  <group>
n

$$$$
>  <seq_string>
RRIRWRPPRLPRPRPRPSKVPRP

>  <group>
n

$$$$

Q) Is it the case that RRIRWRPPRLPRPRPRPVDQPRP has shrunken log2 fold change reaching or exceeding 0.1?
A) y

Q) Is it the case that RRIRKRPPRLPRPRPRPLSLPRP has shrunken log2 fold change reaching or exceeding 0.1?
A) n

Q) Is it the case that RRIRHRPPRLPRPRPRPPTFPRP has shrunken log2 fold change reaching or exceeding 0.1?
A) n

Q) Is it the case that RRIRGRPPRLPRPRPRPQTCPRP has shrunken log2 fold change reaching or exceeding 0.1?
A) y

Q) Is it the case that RRIRERPPRLPRPRPRPTKKPRP has shrunken log2 fold change reaching or exceeding 0.1?
A) n

Q) Is it the case that RRIRKRPPRLPRPRPRPVCTPRP has shrunken log2 fold change reaching or exceeding 0.1?
A) y

Q) Is it the case that RRIRCRPPRLPRPRPRPWPEPRP has shrunken log2 fold change reaching or exceeding 0.1?
A) n

Q) Is it the case that RRIRYRPPRLPRPRPRPTFCPRP has shrunken log2 fold change reaching or exceeding 0.1?
A) y

Just for reference, the supplement of paper PMC9112550 is where these values come from.
